Reference source: patent US11739098B2

Target: human TLR8 (Homo sapiens, UniProt Q9NR97)
Sequence (Q9NR97 27-1041): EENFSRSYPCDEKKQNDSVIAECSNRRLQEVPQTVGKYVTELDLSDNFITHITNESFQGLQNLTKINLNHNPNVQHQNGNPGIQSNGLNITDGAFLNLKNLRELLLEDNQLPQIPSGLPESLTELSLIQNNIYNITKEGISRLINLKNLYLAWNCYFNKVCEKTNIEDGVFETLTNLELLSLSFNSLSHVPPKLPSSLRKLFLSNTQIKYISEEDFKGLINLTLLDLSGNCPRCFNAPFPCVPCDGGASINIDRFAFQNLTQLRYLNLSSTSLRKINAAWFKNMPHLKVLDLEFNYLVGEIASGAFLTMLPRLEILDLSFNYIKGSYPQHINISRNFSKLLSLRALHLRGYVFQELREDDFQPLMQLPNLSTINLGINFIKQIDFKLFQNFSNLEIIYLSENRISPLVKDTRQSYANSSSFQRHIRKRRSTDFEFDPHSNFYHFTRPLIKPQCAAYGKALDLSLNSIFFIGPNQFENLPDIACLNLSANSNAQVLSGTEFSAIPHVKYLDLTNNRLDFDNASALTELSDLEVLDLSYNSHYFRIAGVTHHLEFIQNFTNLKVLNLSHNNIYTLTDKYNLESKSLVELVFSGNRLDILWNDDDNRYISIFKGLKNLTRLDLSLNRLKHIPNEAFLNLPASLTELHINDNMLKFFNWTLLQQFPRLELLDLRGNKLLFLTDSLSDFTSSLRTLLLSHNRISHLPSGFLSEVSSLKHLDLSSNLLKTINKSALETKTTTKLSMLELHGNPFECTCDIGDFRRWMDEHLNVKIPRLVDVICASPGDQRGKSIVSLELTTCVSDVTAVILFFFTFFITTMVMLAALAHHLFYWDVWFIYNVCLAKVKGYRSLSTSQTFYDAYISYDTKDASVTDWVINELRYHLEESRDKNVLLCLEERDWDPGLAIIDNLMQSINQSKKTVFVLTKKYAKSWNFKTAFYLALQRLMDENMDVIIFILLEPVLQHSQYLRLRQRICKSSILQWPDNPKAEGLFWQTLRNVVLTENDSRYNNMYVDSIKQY
Assay: TLR8 inhibition reporter assay (HEK-Blue cells, SEAP reporter, R848 stimulation)
Conditions: HEK-Blue cells overexpressing human TLR8, SEAP reporter, R848 15.9 μM
pIC50: −log10 of the molar value.
reported.endpoint: pIC50

>  <compound.string>
CC(C)c1c(-c2ccnc3[nH]ncc23)[nH]c2ccc(C3CCN(C4CCN(C(C)C)CC4)CC3)cc12

>  <pIC50>
> 7.00

$$$$
>  <compound.string>
CC(C)c1c(-c2ccn3cnnc3c2)[nH]c2ccc(C3CCN(Cc4ncn(C)n4)CC3)cc12

>  <pIC50>
6.00 to 7.00

$$$$
>  <compound.string>
Cc1cc2cc(-c3[nH]c4ccc(C5CCNCC5)cc4c3C(C)C)ccn2n1

>  <pIC50>
4.30 to 6.00

$$$$

Consider the additional compound presented here.
Give the measured pIC50 of Cc1cn2c(C)cc(-c3[nH]c4ccc(C5CCN(CC(=O)N(C)C)CC5)cc4c3C(C)C)cc2n1 .
4.30 to 6.00

---

Molecular target: human TLR8 (Homo sapiens, UniProt Q9NR97)
Test: TLR8 inhibition reporter assay (HEK-Blue cells, SEAP reporter, R848 stimulation)
Conditions: HEK-Blue cells overexpressing human TLR8, SEAP reporter, R848 15.9 μM
Excerpt: TLR7/8/9 Inhibition Reporter Assays HEK-Blue™-cells (Invivogen) overexpressing human TLR7, TLR8 or TLR9 receptors were used for screening inhibitors of these receptors using an inducible SEAP (secreted embryonic alkaline phosphatase) reporter gene under the control of the IFN-β minimal promoter fused to five NF-κB and AP-1-binding sites. […]
Catalogue of IC50 values

Reference set (5 entries):
>  <compound.string>
Cc1cc2nnnn2cc1-c1[nH]c2ccc(C3CCN(C4CCOCC4)CC3)cc2c1C(C)C

>  <reported.endpoint>
IC50

>  <endpoint.result>
< 100 nM

$$$$
>  <compound.string>
CCc1c(-c2ccnc3[nH]ncc23)[nH]c2ccc(C3CCN(Cc4cnn(C)c4)CC3)cc12

>  <reported.endpoint>
IC50

>  <endpoint.result>
< 100 nM

$$$$
>  <compound.string>
Cc1cc2cc(-c3[nH]c4ccc(C5CCN(C(=O)CN(C)C)CC5)cc4c3C(C)C)ccn2n1

>  <reported.endpoint>
IC50

>  <endpoint.result>
1000 to 50000 nM

$$$$
>  <compound.string>
Cc1cc(-c2[nH]c3ccc(C4CCN(C(=O)C[C@H](C)O)CC4)cc3c2C(C)C)cc2ncnn12

>  <reported.endpoint>
IC50

>  <endpoint.result>
100 to 1000 nM

$$$$
>  <compound.string>
COc1c(C)c(-c2[nH]c3ccc(C4CCN(CC(=O)N(C)C)CC4)cc3c2C(C)C)nn2ncnc12

>  <reported.endpoint>
IC50

>  <endpoint.result>
< 100 nM

$$$$

Give the measured IC50 of CC(C)c1c(-c2cc(C(F)(F)F)c3nccn3c2)[nH]c2ccc(C3CCN(Cc4cnn(C)c4)CC3)cc12 .
< 100 nM

Give the measured IC50 of CC(C)c1c(-c2c[nH]c3ncncc23)[nH]c2ccc(C3CCNCC3)cc12 .
< 100 nM

Give the measured IC50 of CC(C)c1c(-c2ccn3nnnc3c2)[nH]c2ccc(C3CCN(CC(=O)N(C)C)CC3)cc12 .
100 to 1000 nM

Give the measured IC50 of CC(C)c1c(-c2cn(C)c3ncccc23)[nH]c2ccc(C3CCN(CC#N)CC3)cc12 .
< 100 nM

Give the measured IC50 of CC(C)c1c(-c2ccc3nccn3c2)[nH]c2ccc(C3CCN(C)CC3)cc12 .
< 100 nM

Give the measured IC50 of Cc1cc(-c2[nH]c3ccc(C4CCN(C(=O)CCN5CCC(F)(F)CC5)CC4)cc3c2C(C)C)cn2nnnc12 .
< 100 nM

Give the measured IC50 of CCc1c(-c2ccnc3[nH]ccc23)[nH]c2ccc(C3CCN(C4CCN(CC)CC4)CC3)cc12 .
< 100 nM
